Test system: HCT-116 colon
Test: NCI tumour cell line growth inhibition, 48 h; in the data active means GI50 below about 0.43 µM; inactive means the rest
Please state which outcome applies, choosing from y = active, n = inactive

Exam item: Please state the recorded outcome for this compound: `N#Cc1c(-c2cccs2)c2c(=S)[nH]c(=S)[nH]c2[nH]c1=S`
Marked response: n

Exam item: Lab log entry: `C[C@@H]1CC[C@H]2C(COCC3=C(C(F)(F)F)O[C@@H]4O[C@@]5(C)CC[C@H]6[C@H](C)CC[C@@H]3[C@@]46OO5)=C(C(F)(F)F)O[C@@H]3O[C@@]4(C)CC[C@@H]1[C@]32OO4` — outcome as called in the assay?
Marked response: y

Exam item: Hi, sorry to bother you, what did the test record for `Clc1ccccc1C(c1ccccc1)(c1ccccc1)n1ccnc1` ?
Marked response: n

Exam item: Recorded test outcome, item `N#Cc1c(NC(=O)c2cccc(C(F)(F)F)c2)sc2c1CCC(=O)C2`
Marked response: y

Exam item: Lab log entry: `COc1cc2c3c(cccc3c1)C(=O)N(CCN1CCCC1)C2=O` — outcome as called in the assay?
Marked response: n

Exam item: What classification did `O=C(c1cccs1)c1c(C(F)(F)F)n([O-])c2ccccc2[n+]1=O` end up with in this test?
Marked response: y

Exam item: Dear colleague, could you share the recorded outcome for `COc1cccc(/C=C/C(=O)c2cc3c(N)c(C(=O)Nc4ccccc4C)sc3nc2C)c1` when you have a moment?
Marked response: n

Exam item: Hey, what did the test say about `O=C1/C(=C/c2ccc(F)cc2)CCOc2ccc([N+](=O)[O-])cc21` ?
Marked response: n

Exam item: Hi, do you know how `Brc1cccc(-c2cc(-c3ccc4c(c3)OCCO4)[nH]n2)c1` came out in this test?
Marked response: n
